assay: self-splicing fitness, log relative to wild type (ln ratio); higher = more splicing; Tetrahymena group I intron in knt gene, E. coli kanamycin selection, DiMSum; sequences stand for … in CUCUCU…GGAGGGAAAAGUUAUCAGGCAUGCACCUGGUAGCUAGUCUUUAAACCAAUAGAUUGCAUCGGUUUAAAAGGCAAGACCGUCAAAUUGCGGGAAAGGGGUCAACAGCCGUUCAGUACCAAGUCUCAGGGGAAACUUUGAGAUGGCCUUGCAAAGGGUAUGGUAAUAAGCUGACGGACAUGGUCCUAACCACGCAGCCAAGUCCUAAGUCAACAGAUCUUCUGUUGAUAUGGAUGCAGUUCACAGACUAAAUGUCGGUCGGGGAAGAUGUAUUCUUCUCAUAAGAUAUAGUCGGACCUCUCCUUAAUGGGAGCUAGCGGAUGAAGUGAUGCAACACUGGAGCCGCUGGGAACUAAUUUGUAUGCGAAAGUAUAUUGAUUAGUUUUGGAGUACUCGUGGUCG; conditions: 30 °C;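 note: selection with 25 µg/mL kanamycin versus none on LB agar overnight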
Everything with self-splicing fitness (ln) lower than -1 is no; everything else, including exactly -1, is yes.

SEQUENCE CONTENT	LABEL VALUE
UUAUAGCAAUAUUACGUGCC	no
AGGAAGCAAUAUUACGCUAC	no
UAUAAGCAAUAUUACGAACA	yes

Decide: self-splicing fitness (ln) of `CCGUAGCAAUAUUACGUGGG` >= -1?
no

Decide: self-splicing fitness (ln) of `UAUGAGCAAUAUUACGGCCU` >= -1?
no

* * *

experiment: self-splicing fitness, log relative to wild type (ln ratio); higher = more splicing; Tetrahymena group I intron in knt gene, E. coli kanamycin selection, DiMSum; sequences stand for … in CUCUCU…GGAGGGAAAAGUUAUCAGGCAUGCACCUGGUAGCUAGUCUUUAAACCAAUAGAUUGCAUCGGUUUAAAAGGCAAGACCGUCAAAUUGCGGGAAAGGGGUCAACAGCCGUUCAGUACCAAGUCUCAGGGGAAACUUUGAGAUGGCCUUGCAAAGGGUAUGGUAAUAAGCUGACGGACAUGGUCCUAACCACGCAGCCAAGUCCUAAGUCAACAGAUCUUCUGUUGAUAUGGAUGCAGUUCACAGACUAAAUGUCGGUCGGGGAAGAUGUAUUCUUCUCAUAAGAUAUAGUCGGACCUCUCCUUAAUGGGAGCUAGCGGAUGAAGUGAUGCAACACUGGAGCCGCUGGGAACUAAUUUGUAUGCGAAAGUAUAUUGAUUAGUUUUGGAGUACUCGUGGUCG; details: 30 °C
Below: a set of entries, each annotated with reported self-splicing fitness (ln).

Answered cases to consult:
SEQUENCE CONTENT	self-splicing fitness (ln)
GAUAAGCAAUAUUACGAACC	-0.954
AUAGAGCAAUAUUACGAAUU	-0.889
AGUAAGCAAUAUUACGAGUU	-2.53
CCAUAGCAAUAUUACGUUUA	-3.25
CGGCAGCAAUAUUACGUCUU	-1.09
CCCAAGCAAUAUUACGGGCA	-3.96
AUUAAGCAAUAUUACGAAAU	-1.35
ACUCAGCAAUAUUACGGUGA	-2.73

Name the recorded self-splicing fitness (ln) for `GUUCAGCAAUAUUACGUGGU` .
-1.03

Name the recorded self-splicing fitness (ln) for `GGCAAGCAAUAUUACGUGGA` .
-1.28

* * *

Below: a set of entries, each annotated with reported self-splicing fitness (ln).
assay: self-splicing fitness, log relative to wild type (ln ratio); higher = more splicing; Tetrahymena group I intron in knt gene, E. coli kanamycin selection, DiMSum; sequences stand for … in CUCUCU…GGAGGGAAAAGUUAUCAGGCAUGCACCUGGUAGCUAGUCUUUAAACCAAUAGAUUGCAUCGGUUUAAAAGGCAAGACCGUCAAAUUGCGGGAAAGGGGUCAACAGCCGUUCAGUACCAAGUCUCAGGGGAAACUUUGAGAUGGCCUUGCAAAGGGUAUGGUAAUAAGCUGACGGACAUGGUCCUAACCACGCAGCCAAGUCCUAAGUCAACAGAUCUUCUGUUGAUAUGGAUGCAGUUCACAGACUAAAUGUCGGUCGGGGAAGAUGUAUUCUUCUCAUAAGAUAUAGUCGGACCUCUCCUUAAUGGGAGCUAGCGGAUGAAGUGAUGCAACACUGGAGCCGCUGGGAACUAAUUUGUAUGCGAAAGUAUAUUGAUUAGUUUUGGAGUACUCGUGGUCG; details: 30 °C

SEQUENCE CONTENT	MEAS VALUE
UCGAAGCAAUAUUACGCUAC	-2.18

Name the recorded self-splicing fitness (ln) for `UGGAAGCAAUAUUACGCAAA` .
-1.24

Name the recorded self-splicing fitness (ln) for `CGUAAGCAAUAUUACGUGGU` .
-3.19

Name the recorded self-splicing fitness (ln) for `GAGUAGCAAUAUUACGGGUA` .
-2.78

Name the recorded self-splicing fitness (ln) for `GUCCAGCAAUAUUACGCGCA` .
-0.0872

Name the recorded self-splicing fitness (ln) for `CCAUAGCAAUAUUACGCGCG` .
-0.974

* * *

experiment: self-splicing fitness, log relative to wild type (ln ratio); higher = more splicing; Tetrahymena group I intron in knt gene, E. coli kanamycin selection, DiMSum; sequences stand for … in CUCUCU…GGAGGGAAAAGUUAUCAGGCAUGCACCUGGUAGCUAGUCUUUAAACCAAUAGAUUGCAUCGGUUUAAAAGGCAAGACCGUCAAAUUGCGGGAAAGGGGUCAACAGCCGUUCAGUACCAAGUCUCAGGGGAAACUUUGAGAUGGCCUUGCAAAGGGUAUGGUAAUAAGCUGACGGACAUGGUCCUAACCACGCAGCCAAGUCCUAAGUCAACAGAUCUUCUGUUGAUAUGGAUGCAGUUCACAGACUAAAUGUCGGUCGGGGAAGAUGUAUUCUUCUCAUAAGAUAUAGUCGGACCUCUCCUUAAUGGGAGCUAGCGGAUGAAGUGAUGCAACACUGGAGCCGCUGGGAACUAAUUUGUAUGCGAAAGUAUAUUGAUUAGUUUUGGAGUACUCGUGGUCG; conditions: 37 °C
Below: a set of entries, each annotated with reported self-splicing fitness (ln).
Kindly provide the number alone.

Answered cases to consult:
SEQUENCE CONTENT	MEAS VALUE
GGCGAGCAAUAUUACGUUCG	-1.59
ACUCAGCAAUAUUACGAUAA	-0.67
AACGAGCAAUAUUACGAAGA	-1.82
CGCUAGCAAUAUUACGUUGU	-1.59
GUCGAGCAAUAUUACGCUCU	-1.39

Name the recorded self-splicing fitness (ln) for `GGUGAGCAAUAUUACGUGAG` .
-1.76

Name the recorded self-splicing fitness (ln) for `UUAUAGCAAUAUUACGAUCC` .
-2.87

Name the recorded self-splicing fitness (ln) for `GCAAAGCAAUAUUACGAAUU` .
-0.942

Name the recorded self-splicing fitness (ln) for `AGUGAGCAAUAUUACGCGAU` .
-1.8

Name the recorded self-splicing fitness (ln) for `CUUAAGCAAUAUUACGGAGC` .
-4.02

Name the recorded self-splicing fitness (ln) for `GGCUAGCAAUAUUACGAGCG` .
-0.288

Name the recorded self-splicing fitness (ln) for `GACUAGCAAUAUUACGCUGA` .
-0.638

Name the recorded self-splicing fitness (ln) for `CUUUAGCAAUAUUACGGGCG` .
0.00294

Name the recorded self-splicing fitness (ln) for `CUGUAGCAAUAUUACGCUCA` .
-1.95

Name the recorded self-splicing fitness (ln) for `GUAAAGCAAUAUUACGGACC` .
-0.652

Name the recorded self-splicing fitness (ln) for `UUACAGCAAUAUUACGGUAA` .
-1.68

* * *

experiment: self-splicing fitness, log relative to wild type (ln ratio); higher = more splicing; Tetrahymena group I intron in knt gene, E. coli kanamycin selection, DiMSum; sequences stand for … in CUCUCU…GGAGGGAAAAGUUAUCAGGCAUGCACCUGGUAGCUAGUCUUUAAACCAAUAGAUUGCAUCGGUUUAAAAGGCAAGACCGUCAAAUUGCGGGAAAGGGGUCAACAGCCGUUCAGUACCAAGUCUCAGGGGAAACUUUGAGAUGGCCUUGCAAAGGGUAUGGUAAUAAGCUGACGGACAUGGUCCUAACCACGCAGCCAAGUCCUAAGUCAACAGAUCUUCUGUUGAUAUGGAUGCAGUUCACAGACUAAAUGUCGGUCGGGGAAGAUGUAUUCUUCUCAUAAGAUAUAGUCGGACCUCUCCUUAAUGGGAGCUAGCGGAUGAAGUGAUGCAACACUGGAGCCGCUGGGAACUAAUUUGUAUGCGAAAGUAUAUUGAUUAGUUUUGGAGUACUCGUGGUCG; conditions: 37 °C
Below: a set of entries, each annotated with reported self-splicing fitness (ln).
Kindly provide the number alone.

Answered cases to consult:
SEQUENCE CONTENT	MEAS VALUE
GGUUAGCAAUAUUACGUACG	0.0535
UGGGAGCAAUAUUACGCGUG	-1.67
AAUGAGCAAUAUUACGAAGC	-1.89
UGGUAGCAAUAUUACGAUUG	0.168
GCGCAGCAAUAUUACGGACA	-0.514

Name the recorded self-splicing fitness (ln) for `GGCUAGCAAUAUUACGGACC` .
-0.619

Name the recorded self-splicing fitness (ln) for `UCAUAGCAAUAUUACGACCG` .
-0.325

Name the recorded self-splicing fitness (ln) for `CGUUAGCAAUAUUACGGACC` .
0.675
